Data provenance is patent EP0962457B1.

# assay_info: In vitro metabolic stability: disappearance half-life in human liver microsomes (HLM/37)
# Assay type: in vitro ADME
# condition_notes: human liver microsomes HLM/37, test compound 1µM, 37°C, 60 minutes, NADPH; read-out: Metabolic stability (t½)
test_readout: half-life at 1 µM (min)
Numbers only, in min.

[ask] Look up and report measured half-life at 1 µM for this entry: CS(=O)(=O)N1CCC(C2CN(CC[C@]3(c4ccc(Cl)c(Cl)c4)CCC(=O)N(CCC4CC4)C3)C2)CC1
[reply] 27

====

# assay_info: In vitro metabolic stability: disappearance half-life in human liver microsomes (HLM/37)
# Format: in vitro ADME
# condition_notes: pH 7.4; human liver microsomes HLM/37, test compound 1µM, 37°C, 60 minutes, NADPH; read-out: Metabolic stability (t½)
test_readout: half-life at 1 µM (min)
One number for each entry, in min.

[ask] Return half-life at 1 µM for the following molecule: CS(=O)(=O)N1CCC(C2CN(CC[C@]3(c4ccc(Cl)c(Cl)c4)CCC(=O)N(CC4CC4)C3)C2)CC1
[reply] 75

====

# assayed_system: human NK2 receptor (Homo sapiens, UniProt P21452)
# Construct: expressed in transfected cells; host or cells: Chinese hamster ovary cells (membranes)
# Sequence (P21452 whole entry): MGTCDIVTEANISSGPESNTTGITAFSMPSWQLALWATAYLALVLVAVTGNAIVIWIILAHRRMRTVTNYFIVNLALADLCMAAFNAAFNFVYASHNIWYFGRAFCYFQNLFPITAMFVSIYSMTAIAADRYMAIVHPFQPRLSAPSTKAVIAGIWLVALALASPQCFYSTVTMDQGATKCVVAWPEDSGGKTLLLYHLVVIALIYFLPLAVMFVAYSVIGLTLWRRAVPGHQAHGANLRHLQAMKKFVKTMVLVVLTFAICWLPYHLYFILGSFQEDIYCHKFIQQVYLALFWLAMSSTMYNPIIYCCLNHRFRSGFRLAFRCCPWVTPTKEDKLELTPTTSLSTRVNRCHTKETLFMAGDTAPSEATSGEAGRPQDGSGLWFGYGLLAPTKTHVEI
# assay_info: NK2 receptor affinity: competition with [3H]-NKA for binding to membranes of Chinese hamster ovary cells expressing the cloned human NK2 receptor
# condition_notes: CHO cell membranes, 90 min, 25°C, read-out: NK2 receptor affinity (pKi) (converted)
I'd appreciate it if you could supply Ki values for the items below.
One number for each entry, in nM.

> print(dat)
                         chemical.structure  test.readout  quantitative.result
1  CS(=O)(=O)N1CCC(C2CN(CC[C@]3(c4ccc(Cl)c(F)c4)CCC(=O)N(CC4CC4)C3)C2)CC1            Ki                 2.51
2  CS(=O)(=O)N1CCC(C2CN(CC[C@]3(c4ccc(Cl)c(Cl)c4)CCC(=O)N(CC4CC4)C3)C2)CC1            Ki                 3.98
3  CS(=O)(=O)N1CCC(C2CN(CC[C@]3(c4ccc(F)c(F)c4)CCC(=O)N(C4CCCCC4)C3)C2)CC1            Ki                 3.16
4  CS(=O)(=O)N1CCC(C2CN(CC[C@]3(c4ccc(Cl)c(Cl)c4)CCC(=O)N(CC4CCCCC4)C3)C2)CC1            Ki                   20

Parameters: items (list). Returns: Ki for each item.
1. CS(=O)(=O)N1CCC(C2CN(CC[C@]3(c4ccc(Cl)c(Cl)c4)CCC(=O)N(Cc4ccccc4)C3)C2)CC1
2. CS(=O)(=O)N1CCC(C2CN(CC[C@]3(c4ccc(Cl)c(Cl)c4)CCC(=O)N(C4CCCC4)C3)C2)CC1

[reply]
[1.26, 1]

[ask] Please report Ki for the following compound: CCS(=O)(=O)N1CCC(C2CN(CC[C@]3(c4ccc(Cl)c(Cl)c4)CCC(=O)N(CC4CC4)C3)C2)CC1
[reply] 6.31
